Form field: shrunken log2 fold change (one value per entry).
tested on: Escherichia coli TOP10; test: shrunken log2 fold change of peptide-encoding DNA abundance (4.5 h post-induction vs induction); higher = less antimicrobial activity (less host growth inhibition); settings: time post-induction: 4.5 h; library: site-saturation at positions 5, 18, 19, 20
ASSAY READOUT: shrunken log2 fold change

>>> observed_measurement("RRIRCRPPRLPRPRPRPKDKPRP")
0.401
>>> observed_measurement("RRIRERPPRLPRPRPRPSYAPRP")
-0.176
>>> observed_measurement("RRIRYRPPRLPRPRPRPSDLPRP")
-1.92
>>> observed_measurement("RRIRPRPPRLPRPRPRPMVMPRP")
-0.0504
>>> observed_measurement("RRIRNRPPRLPRPRPRPIHIPRP")
-0.58
>>> observed_measurement("RRIRFRPPRLPRPRPRPIATPRP")
-0.0109
>>> observed_measurement("RRIRMRPPRLPRPRPRPPNEPRP")
0.2
>>> observed_measurement("RRIRFRPPRLPRPRPRPYNSPRP")
-0.136
>>> observed_measurement("RRIRTRPPRLPRPRPRPVWMPRP")
-0.0336
>>> observed_measurement("RRIRARPPRLPRPRPRPAFDPRP")
1
>>> observed_measurement("RRIRERPPRLPRPRPRPYVKPRP")
0.04
>>> observed_measurement("RRIRMRPPRLPRPRPRPHKVPRP")
0.14
>>> observed_measurement("RRIRGRPPRLPRPRPRPSYMPRP")
-0.0696
>>> observed_measurement("RRIRRRPPRLPRPRPRPHGHPRP")
0.224
>>> observed_measurement("RRIRFRPPRLPRPRPRPAPIPRP")
0.108

* * *

system: Escherichia coli TOP10; assay: shrunken log2 fold change of peptide-encoding DNA abundance (4.5 h post-induction vs induction); higher = less antimicrobial activity (less host growth inhibition); conditions: time post-induction: 4.5 h; library: site-saturation at positions 5, 18, 19, 20;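 further: peptides expressed intracellularly from a pBAD plasmid library in pooled LB shake-flask culture, induced with 0.3% L-arabinose, DNA abundance read by NGS, three biological replicates, DESeq2 with apeglm shrinkage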
ASSAY READOUT: shrunken log2 fold change

>>> observed_measurement("RRIRQRPPRLPRPRPRPVNAPRP")
0.00432
>>> observed_measurement("RRIRPRPPRLPRPRPRPHCTPRP")
-0.479
>>> observed_measurement("RRIRSRPPRLPRPRPRPSKGPRP")
-0.142
>>> observed_measurement("RRIRTRPPRLPRPRPRPDMTPRP")
-0.0206
>>> observed_measurement("RRIRIRPPRLPRPRPRPATCPRP")
-0.349
>>> observed_measurement("RRIRTRPPRLPRPRPRPLEYPRP")
-0.668
>>> observed_measurement("RRIRIRPPRLPRPRPRPTFPPRP")
-0.316
>>> observed_measurement("RRIRERPPRLPRPRPRPGCQPRP")
0.0111
>>> observed_measurement("RRIRVRPPRLPRPRPRPMGMPRP")
0.0727
>>> observed_measurement("RRIRLRPPRLPRPRPRPEFPPRP")
-0.0973
>>> observed_measurement("RRIRDRPPRLPRPRPRPWCCPRP")
0.0175
>>> observed_measurement("RRIRIRPPRLPRPRPRPFRRPRP")
0.017
>>> observed_measurement("RRIRYRPPRLPRPRPRPVAVPRP")
3.17
>>> observed_measurement("RRIRGRPPRLPRPRPRPVPSPRP")
0.201
>>> observed_measurement("RRIRPRPPRLPRPRPRPMLSPRP")
0.0181
